- Tested on: SK-MEL-5 melanoma
- assayRemarks: NCI tumour cell line growth inhibition, 48 h
assayEndpoint: TGI

(Q) GET /values?readout=TGI&system=SK-MEL-5 melanoma&item= CNC(=S)N/N=C/C(C)=N/NC(=S)NC
(A) > 100 µM

(Q) // query: CC(=O)c1cc2c(N)c(C(=O)Nc3cccc4ccccc34)sc2nc1C
(A) > 50 µM

(Q) // query: CCSC[C@@H]1C[C@](O)(c2ccccc2)[C@@H](c2ccccc2)O1
(A) > 100 µM

(Q) // query: Nc1nc(Cl)c(CO)c(NCC2(CO)CCC2)n1
(A) > 100 µM

(Q) // query: NC(CCC(=O)c1ccccn1)C(=O)O (configuration not stated)
(A) > 100 µM
